Tested on: β-fructofuranosidase
Experiment: Substrate specificity (TLC)
Type: biochemical, Bacillus sp. V230 (FERM BP-5054)
Conditions: 2 w/v % substrate, 2 units/g substrate, 40° C., pH 5.5, 24 hours
Experimental: A solution with a final concentration of 2 w/v % raffinose, erlose, stachyose, lactose, xylofructoside, maltose, cellobiose, lactose, inulin or laevan as a substrate was mixed with 2 units/g substrate of a β-fructofuranosidase obtained by the method in Experiment 2, and allowed to react enzymatically at 40° C. and pH 5.5 for 24 hours. […]
Measure Name: Action of the enzyme on the substrate (release of fructose)

Please review the following examples before continuing.
[[record]]
molecule = "OC[C@H]1O[C@@H](O[C@H]2[C@H](O)[C@@H](O)C(O)O[C@@H]2CO)[C@H](O)[C@@H](O)[C@H]1O (stereo partly drawn)"
observed = "does not act on"

[[record]]
molecule = "OC[C@H]1O[C@H](OC[C@H]2O[C@H](O[C@]3(CO)O[C@H](CO)[C@@H](O)[C@@H]3O)[C@H](O)[C@@H](O)[C@@H]2O)[C@H](O)[C@@H](O)[C@H]1O"
observed = "acts on"

[[record]]
molecule = "OC[C@H]1O[C@@H](O[C@H]2[C@H](O)[C@@H](O)[C@@H](O[C@]3(CO)O[C@H](CO)[C@@H](O)[C@@H]3O)O[C@@H]2CO)[C@H](O)[C@@H](O)[C@H]1O"
observed = "acts on"

[[record]]
molecule = "OC[C@H]1O[C@@H](O[C@H]2[C@H](O)[C@@H](O)C(O)O[C@@H]2CO)[C@H](O)[C@@H](O)[C@@H]1O (stereo partly drawn)"
observed = "does not act on"

[[record]]
molecule = "OC[C@H]1O[C@H](O[C@H]2[C@H](O)[C@@H](O)[C@H](O)O[C@@H]2CO)[C@H](O)[C@@H](O)[C@@H]1O"
observed = "does not act on"

[[record]]
molecule = "OC[C@H]1O[C@H](OC[C@H]2O[C@H](OC[C@H]3O[C@H](O[C@]4(CO)O[C@H](CO)[C@@H](O)[C@@H]4O)[C@H](O)[C@@H](O)[C@@H]3O)[C@H](O)[C@@H](O)[C@H]2O)[C@H](O)[C@@H](O)[C@H]1O"
observed = "acts on"

[[record]]
molecule = "OC[C@H]1O[C@@](CO)(O[C@H]2O[C@H](CO)[C@@H](O)[C@H](O)[C@H]2O)[C@@H](O)[C@@H]1O"
observed = "acts on"

[[record]]
molecule = "OC[C@H]1O[C@@](CO)(O[C@H]2OC[C@@H](O)[C@H](O)[C@H]2O)[C@@H](O)[C@@H]1O [xylofructoside]"
observed = "acts on"


Shifting focus to the molecule that follows.
Give a short answer stating reported Action of the enzyme on the substrate (release of fructose) for OC[C@H]1O[C@@](CO)(O[C@H]2O[C@H](CO)[C@@H](O[C@H]3O[C@H](CO)[C@@H](O)[C@H](O)[C@H]3O)[C@H](O)[C@H]2O)[C@@H](O)[C@@H]1O .
acts on
